- target-of-assay: SST5 (Homo sapiens, UniProt P35346)
- Sequence (P35346 whole entry): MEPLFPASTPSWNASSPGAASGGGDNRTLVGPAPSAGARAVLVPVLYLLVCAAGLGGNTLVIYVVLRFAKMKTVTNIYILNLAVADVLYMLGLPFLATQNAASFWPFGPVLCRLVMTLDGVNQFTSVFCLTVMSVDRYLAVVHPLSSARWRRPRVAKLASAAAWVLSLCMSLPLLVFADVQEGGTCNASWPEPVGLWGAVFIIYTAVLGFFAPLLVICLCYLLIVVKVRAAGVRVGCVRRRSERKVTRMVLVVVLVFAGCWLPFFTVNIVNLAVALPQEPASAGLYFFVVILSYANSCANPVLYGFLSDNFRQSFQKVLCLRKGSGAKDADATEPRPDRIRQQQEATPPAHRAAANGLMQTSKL
- measurement-description: Hit Hunter cAMP XS+ assay, SST5 activation via Gi (reduction of forskolin-stimulated cAMP)
- Format: cell-based
- stated-conditions: selectivity for SST5 over SST2
*1 amine or outer side, *2 acyl side, *3 side chain or, on linkers, in order; H or OH if unused. Where a SMILES comes first, the peptide text is derived from it. Side-chain parts run from the residue outwards. [ ]: non-standard residue; d: D form. The star is where a group is joined. Ala(piperidin-4-yl) = O=C([C@H](CC1CCN([*:3])CC1)N[*:1])[*:2]; Ala(piperazin-1-yl) = N[C@@H](CN1CCNCC1)C(=O)O; Pro(4,4-F2) = O=C(O)[C@@H]1CC(F)(F)CN1; Ethylenediamine = C(CN[*:2])N[*:1]; d(hPhe) = N[C@H](CCc1ccccc1)C(=O)O; Hyp = O=C(O)[C@@H]1C[C@@H](O)CN1; hPhe = N[C@@H](CCc1ccccc1)C(=O)O; 3Pal = N[C@@H](Cc1cccnc1)C(=O)O; Tic = O=C(O)[C@@H]1Cc2ccccc2CN1; Pip = O=C(O)[C@@H]1CCCCN1; X3 = CN[C@H]1CCN(*)C1; CO = O=C([*:1])[*:2]; Bn = c1ccc(C*)cc1
Classify as follows. Reported SST5/2 Selectivity greater than or equal to 300: 1 (yes). Reported SST5/2 Selectivity below: 0 (no).

Example entries and their recorded answers appear below.
molecule: NCCNC(=O)O[C@@H]1C[C@H]2C(=O)N[C@@H](Cc3ccccc3)C(=O)N[C@H](Cc3c[nH]c4ccccc34)C(=O)N[C@@H](CC3CCNCC3)C(=O)N[C@@H](Cc3ccc(OCc4ccccc4)cc3)C(=O)N[C@@H](Cc3ccccc3)C(=O)N2C1 [Example 2] (cyclo(F[Hyp]([CO-Ethylenediamine])F[dW][Ala(piperidin-4-yl)]Y(Bn)))
class-assignment: 0 (no)
--
molecule: NCCNC(=O)O[C@@H]1C[C@H]2C(=O)N[C@@H](CCc3ccccc3)C(=O)N[C@H](Cc3c[nH]c4ccccc34)C(=O)N[C@@H](CN3CCNCC3)C(=O)N[C@@H](Cc3ccc(OCc4ccccc4)cc3)C(=O)N3CC(F)(F)C[C@H]3C(=O)N2C1 [Example 70] (cyclo([Hyp]([CO-Ethylenediamine])[hPhe][dW][Ala(piperazin-1-yl)]Y(Bn)[Pro(4,4-F2)]))
class-assignment: 1 (yes)
--
molecule: NCCNC(=O)O[C@@H]1C[C@H]2C(=O)N[C@H](CCc3ccccc3)C(=O)N[C@H](Cc3c[nH]c4ccccc34)C(=O)N[C@@H](CC3CCNCC3)C(=O)N[C@@H](Cc3ccc(OCc4ccccc4)cc3)C(=O)N[C@@H](Cc3ccccc3)C(=O)N2C1 [Example 38] (cyclo(F[Hyp]([CO-Ethylenediamine])[d(hPhe)][dW][Ala(piperidin-4-yl)]Y(Bn)))
class-assignment: 0 (no)
--
molecule: NCCNC(=O)O[C@@H]1C[C@H]2C(=O)N[C@H](CCc3ccccc3)C(=O)N[C@@H](Cc3c[nH]c4ccccc34)C(=O)N[C@@H](CN3CCNCC3)C(=O)N[C@@H](Cc3ccc(OCc4ccccc4)cc3)C(=O)N[C@@H](Cc3cccnc3)C(=O)N2C1 [Example 33] (cyclo([3Pal][Hyp]([CO-Ethylenediamine])[d(hPhe)]W[Ala(piperazin-1-yl)]Y(Bn)))
class-assignment: 0 (no)
--
molecule: CN[C@H]1CCN(C(=O)O[C@@H]2C[C@H]3C(=O)N[C@@H](CCc4ccccc4)C(=O)N[C@H](Cc4c[nH]c5ccccc45)C(=O)N[C@@H](CC4CCNCC4)C(=O)N[C@@H](Cc4ccc(OCc5ccccc5)cc4)C(=O)N4Cc5ccccc5C[C@H]4C(=O)N3C2)C1 [Example 78] (cyclo([Hyp]([CO-X3])[hPhe][dW][Ala(piperidin-4-yl)]Y(Bn)[Tic]))
class-assignment: 1 (yes)

We next turn to a different molecule, shown below.
Ask: Identify whether the reported SST5/2 Selectivity of the following molecule is 300 or greater: NCCNC(=O)O[C@@H]1C[C@H]2C(=O)N[C@@H](CCc3ccccc3)C(=O)N[C@H](Cc3c[nH]c4ccccc34)C(=O)N[C@@H](CN3CCNCC3)C(=O)N[C@@H](Cc3ccc(OCc4ccccc4)cc3)C(=O)N3CCCC[C@H]3C(=O)N2C1 [Example 69] (cyclo([Hyp]([CO-Ethylenediamine])[hPhe][dW][Ala(piperazin-1-yl)]Y(Bn)[Pip]))
Reply: 0 (no)
